Assay: NCI Yeast Anticancer Drug Screen. Data for the mec2-1 strain (AID 157)
Settings: S. cerevisiae mec2-1 strain, at 5.0 µM (retest, dose inferred, filed as 0.5), hits give high values
The panel holds about 79,000 compounds, 15% with a hit somewhere; the sample as a whole holds those more often.
Values of growth inhibition greater than or equal to 8% map to class 1; values below map to class 0.

Some entries whose results are on file:
compound: C=C1CCC[C@@H]2[C@@](C)(CC3=CC(=O)C=CC3=O)C(C)CC[C@]12C (stereo partly specified)
group: class 1

compound: CN(C)CC1CC/C(=C\c2ccc(Cl)c(Cl)c2)C1=O (stereo unspecified)
group: class 1

compound: COc1cc(O)c2c(c1)C(=O)C1=C(C2=O)[C@@H](C)OC(C)[C@H]1O (stereo partly specified)
group: class 0

compound: c1ccc2c3[nH]c(c2c1)=Nc1ccc(cc1)-c1nc2ccc(cc2o1)N=c1[nH]c(c2ccccc12)=Nc1ccc2nc(oc2c1)-c1ccc(cc1)N=3
group: class 1

Now look at this entry.
Ask: For this compound, is measured growth inhibition 8% or higher? `CCCCCCCCS(=O)(=O)Nc1ccccc1`
Result: class 0

----------
Experiment: NCI Yeast Anticancer Drug Screen. Data for the sgs1 mgt1 strain (AID 161);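 note: 0% = growth of cultures given vehicle only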
Details: S. cerevisiae sgs1 mgt1 strain, at 50.0 µM, hits give high values
This is part of a sample that, as a whole, favours compounds with a hit. Of some 79,000 tested, about 15% had one in any assay. Active and inactive are the calls of the source. Rule as the data show it: active = growth inhibition above about 70%; inactive = the rest.
readout.type: growth inhibition

Answered examples (4):
molecule: OC(Cc1cccnc1)(c1ccccc1)c1ccc(Cl)cc1 (centres undefined)
growth inhibition: 97.3% (active)
//
molecule: FC(F)(F)c1nc2cc(SSc3cc4nc(C(F)(F)F)[nH]c4cc3Cl)c(Cl)cc2[nH]1
growth inhibition: 95% (active)
//
molecule: O=C(O)C1(Cc2ccc3c(c2)CCC3)Cc2cc3c(cc2C1)CCC3
growth inhibition: 77.8% (active)
//
molecule: Clc1cc(Cl)c2cc3cccc[n+]3cc2c1Cl
growth inhibition: 79.2% (active)

Ask: May I ask what growth inhibition has been recorded for `CCN(CC)C(=S)Nc1ccc(Cl)cc1` ?
Result: 97.1% (active)

Ask: May I ask what growth inhibition has been recorded for `CCCOC1=C(Cl)C(=O)c2cccc([N+](=O)[O-])c2C1=O` ?
Result: 99.4% (active)

Ask: May I ask what growth inhibition has been recorded for `c1ccc(-c2c[nH]c(-c3ccccc3)c2-c2ccccc2)cc1` ?
Result: 93.3% (active)

Ask: May I ask what growth inhibition has been recorded for `O=c1c2ccccc2sc2c(CO)ccc(NCCN3CCCCC3)c12` ?
Result: 34.5% (inactive)

Ask: May I ask what growth inhibition has been recorded for Cc1c(N)nc(C(CC(N)=O)NCC(N)C(N)=O)nc1C(=O)NC(C(=O)NC(C)C(O)C(C)C(=O)NC(C(=O)NCCc1nc(-c2nc(C(=O)NCCCNCCCc3ccccn3)cs2)cs1)C(C)O)C(OC1OC(CO)C(O)C(O)C1OC1OC(CO)C(O)C(OC(N)=O)C1O)c1cnc[nH]1 (centres undefined) ?
Result: 93.7% (active)

----------
Assay: NCI Yeast Anticancer Drug Screen. Data for the cln2 rad14 strain (AID 165);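 note: 0% = growth equal to vehicle treated cultures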
Conditions: S. cerevisiae cln2 rad14 strain, at 50.0 µM (retest, dose inferred, filed as 5.0), hits give high values
The panel holds about 79,000 compounds, 15% with a hit somewhere; the sample as a whole holds those more often.
readout.type: growth inhibition (%)
// note: answer is a bare numeric in %

Ask: May I ask what growth inhibition has been recorded for `CCCCCCCN1C(=O)c2ccccc2S1(=O)=O` ?
Result: 73

Ask: May I ask what growth inhibition has been recorded for COS(=O)c1cc(Cl)cc(Cl)c1OC(=O)CSSCC(=O)Oc1c(Cl)cc(Cl)cc1S(=O)OC (stereo unspecified) ?
Result: 98

Ask: May I ask what growth inhibition has been recorded for `CCCC(c1ccc(O)cc1)c1ccc(O)cc1` ?
Result: 96
